- Test system: A498 renal
- test: NCI-60 one-dose screen, 48 h
- condition info: 10 µM unless noted
This is part of a sample that, as a whole, favours compounds with a hit. Of some 83,000 tested, about 20% had one in any assay. The source made the active and inactive calls. Rule for the calls: active = growth percent below 10; inactive = the rest.
Hi! Could you answer with just one of these? yes (active), no (inactive)

Which outcome was assigned to `COc1ccc(-n2nc(C)c3c(Nc4ccc(NC(=O)Nc5cc(C(F)(F)F)ccc5F)cc4)ncnc32)cc1` in this test?
no

And for `O=C1Nc2c(ccc(Cl)c2Cl)/C1=C\c1ccc(C(F)(F)F)cc1` ?
no

Please answer likewise for `CN(C)S(=O)(=O)c1ccc(S(=O)(=O)Nc2cccc(Cl)c2N2CCCCC2)cc1`
no

# iterate: `CC(=O)c1cc(C(=O)c2ccc3c(c2)Sc2ccccc2N3)n2ccccc12`
yes

Also `CN(Cc1cc(Cl)cc(Cl)c1O)Cc1cc(Cl)cc(Cl)c1O` , if possible.
no

Same question, `O=C(C(=O)c1ccc2c(c1)OCO2)c1ccc2c(c1)OCO2` this time
no

Try this compound next: Cc1cc(N2CCCC2)nc(NC2CCCC(Nc3ccnc4cc(Cl)ccc34)C2)n1 (stereo not given)
yes

Please do the same for `N#Cc1c(-c2ccc(Cl)cc2)nc(N=Nc2c(O)[nH]c3ccc(Cl)cc23)nc1N1CCOCC1` as well.
no

Request: `NC(=O)c1cc(Br)ccc1NC(=O)/C=C/c1ccccc1`
no

Likewise for CC(=O)NCC1c2c(n(C)c3c(Cl)c(Cl)ccc23)C(=O)NC1(C)C (stereo not given) ?
no

Sourced from PubChem BioAssay (NCI)
